These measurements were taken from ChEMBL document CHEMBL1148435.

molecular target: Delta-type opioid receptor (Homo sapiens, UniProt P41143); assay: Binding affinity for delta opioid receptor
Sequence (P41143 whole entry): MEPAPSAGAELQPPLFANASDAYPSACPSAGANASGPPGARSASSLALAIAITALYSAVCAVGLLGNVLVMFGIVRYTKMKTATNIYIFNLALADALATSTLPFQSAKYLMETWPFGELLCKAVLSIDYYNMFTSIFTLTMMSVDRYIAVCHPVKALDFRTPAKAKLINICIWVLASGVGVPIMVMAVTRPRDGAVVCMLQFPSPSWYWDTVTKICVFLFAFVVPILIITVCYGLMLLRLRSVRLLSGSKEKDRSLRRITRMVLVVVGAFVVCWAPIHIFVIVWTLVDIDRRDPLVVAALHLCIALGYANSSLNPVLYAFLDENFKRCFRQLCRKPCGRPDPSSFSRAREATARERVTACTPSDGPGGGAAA
metric: pKi
Quick note: pKi values are minus log10 of concentrations in mol/L.

molecule=CCN(CC)C(=O)c1ccc(C(=C2CC3CCC(C2)N3CCc2c[nH]c3ccccc23)c2ccccc2)cc1 observed_value=8.46
molecule=CCN(CC)C(=O)c1ccc(C(=C2CC3CCC(C2)N3CCc2ccc(F)cc2)c2ccccc2)cc1 observed_value=8.58
molecule=COCCN(CCOC)C(=O)c1ccc(C(=C2CC3CCC(C2)N3CCc2ccccc2)c2ccccc2)cc1 observed_value=7.78
molecule=CCN(CC)C(=O)c1ccc(/C(=C2\C[C@H]3CC[C@@H](C2)N3C)c2ccccc2)cc1 observed_value=8.24
molecule=O=C(c1ccc(C(=C2CC3CCC(C2)N3CCc2ccccc2)c2ccccc2)cc1)N1CCCC1 observed_value=7.62

Input C=CCN1[C@@H]2CC[C@H]1C/C(=C(\c1ccccc1)c1ccc(C(=O)N(CC)CC)cc1)C2 . Output pKi: 10.60

Entry CCN(CC)C(=O)c1ccc(C(=C2CC3CCC(C2)N3C)c2ccc(O)cc2)cc1 ; pKi = 8.72

Sample CCN(CC)C(=O)c1ccc(/C(=C2/C[C@H]3CC[C@@H](C2)N3C)c2ccccc2)cc1 ; pKi observed: 8.35

Short answer for CCN(CC)C(=O)c1ccc(C(=C2CC3CCC(C2)N3CCC2CCCCC2)c2ccccc2)cc1 : pKi was 8.87

# pKi of CC1CCCC(C)N1C(=O)c1ccc(/C(=C2\C[C@H]3CC[C@@H](C2)N3CCc2ccccc2)c2ccccc2)cc1 (stereo partly specified) = 7.96

pKi for CCCN1C2CCC1CC(=C(c1ccccc1)c1ccc(C(=O)N(CC)CC)cc1)C2 is 9.41

The measured pKi associated with CCN(CC)C(=O)c1ccc(C(=C2CC3CCC(C2)N3C)c2cccc(O)c2)cc1 reads 9.22

Documented pKi of CCN(CC)C(=O)c1ccc(C(=C2CC3CCC(C2)N3CCCc2ccccc2)c2ccccc2)cc1 : 9.25

// recorded pKi for CCN(CC)C(=O)c1ccc(C(=C2CC3CCC(C2)N3)c2ccc(O)cc2)cc1 : 9.24

The recorded pKi for CCN(CC)C(=O)c1ccc(/C(=C2\C[C@H]3CC[C@@H](C2)N3)c2ccccc2)cc1 is 10.64

Sure, the documented pKi for C=C(C)CN(CC)C(=O)c1ccc(/C(=C2\C[C@H]3CC[C@@H](C2)N3CCc2ccccc2)c2ccccc2)cc1 is 8.53

In plain terms, CCN(CC)C(=O)c1ccc(/C(=C2/C[C@H]3CC[C@@H](C2)N3)c2ccccc2)cc1 has a documented pKi of 9.44

Notebook: CCN(CC)C(=O)c1ccc(C(=C2CC3CCC(C2)N3CCc2cccs2)c2ccccc2)cc1 , pKi read as 7.88

According to the records, this molecule CCN(CC)C(=O)c1ccc(C(=C2CC3CCC(C2)N3C)c2ccc(OC)cc2)cc1 displays pKi of 8.46

Reported pKi for CC(C)N(C(=O)c1ccc(C(=C2CC3CCC(C2)N3CCc2ccccc2)c2ccccc2)cc1)C(C)C was 7.31

Please fill in: pKi reported for CCN(CC)C(=O)c1ccc(/C(=C2/C[C@H]3CC[C@@H](C2)N3CCc2ccccc2)c2ccccc2)cc1 = 7.38

Query CCCN(CCC)C(=O)c1ccc(C(=C2CC3CCC(C2)N3CCc2ccccc2)c2ccccc2)cc1 yields pKi of 8.13
